Assay: Snapshot in vivo PK, dried blood spots, LC-MS/MS
Settings: mouse, po, 3 mg/kg
quantity: AUC(0-inf) (ng·h/mL)
Hi! Could you send only the number? It should be in ng·h/mL, unit omitted.

The recorded AUC(0-inf) for COc1ccc(/N=C(\N)CC(O)c2cc3c(F)cc(F)cc3c3cc(C(F)(F)F)ccc23)cc1.Cl (stereo not shown) is 30

----------
Experiment: Snapshot in vivo PK, dried blood spots, LC-MS/MS
Settings: mouse, po, 3 mg/kg
quantity: half-life (h)
Hi! Could you send only the number? It should be in h, unit omitted.

The recorded half-life for COc1ccc(/N=C(\N)CC(O)c2cc3c(F)cc(F)cc3c3cc(C(F)(F)F)ccc23)cc1.Cl (stereo not shown) is 5.49

----------
Experiment: Snapshot in vivo PK, dried blood spots, LC-MS/MS
Conditions: mouse, po, 10 mg/kg, ke, single oral dose 10 mg/kg, mouse I
quantity: k el (s⁻¹)
Hi! Could you send only the number? It should be in s⁻¹, unit omitted.

The recorded k el for COc1ccc(/N=C(\N)CC(O)c2cc3c(F)cc(F)cc3c3cc(C(F)(F)F)ccc23)cc1.Cl (stereo not shown) [Compound 22] is 4.66e-05

----------
Test: Snapshot in vivo PK, dried blood spots, LC-MS/MS
Conditions: mouse, po, 3 mg/kg
quantity: AUC(0-t) (ng·h/mL)
Hi! Could you send only the number? It should be in ng·h/mL, unit omitted.

The recorded AUC(0-t) for COc1ccc(/N=C(\N)CC(O)c2cc3c(F)cc(F)cc3c3cc(C(F)(F)F)ccc23)cc1.Cl (stereo not shown) is 28.9

----------
Assay: Snapshot in vivo PK, dried blood spots, LC-MS/MS
Conditions: mouse, po, 10 mg/kg
quantity: AUC(0-t) (ng·h/mL)
Hi! Could you send only the number? It should be in ng·h/mL, unit omitted.

The recorded AUC(0-t) for COc1ccc(/N=C(\N)CC(O)c2cc3c(F)cc(F)cc3c3cc(C(F)(F)F)ccc23)cc1.Cl (stereo not shown) is 361

----------
Test: Snapshot in vivo PK, dried blood spots, LC-MS/MS
Conditions: mouse, po, 30 mg/kg, ke, single oral dose 30 mg/kg, mouse I
quantity: k el (s⁻¹)
Hi! Could you send only the number? It should be in s⁻¹, unit omitted.

The recorded k el for COc1ccc(/N=C(\N)CC(O)c2cc3c(F)cc(F)cc3c3cc(C(F)(F)F)ccc23)cc1.Cl (stereo not shown) is 1.94e-05

----------
Experiment: Snapshot in vivo PK, dried blood spots, LC-MS/MS
Conditions: mouse, po, 10 mg/kg
quantity: half-life (min)
Hi! Could you send only the number? It should be in min, unit omitted.

The recorded half-life for COc1ccc(/N=C(\N)CC(O)c2cc3c(F)cc(F)cc3c3cc(C(F)(F)F)ccc23)cc1.Cl (stereo not shown) is 316

----------
Experiment: Snapshot in vivo PK, dried blood spots, LC-MS/MS
Details: mouse, po, 30 mg/kg
quantity: AUC(0-inf) (ng·h/mL)
Hi! Could you send only the number? It should be in ng·h/mL, unit omitted.

The recorded AUC(0-inf) for COc1ccc(/N=C(\N)CC(O)c2cc3c(F)cc(F)cc3c3cc(C(F)(F)F)ccc23)cc1.Cl (stereo not shown) [Compound 22] is 1310

----------
Test: Snapshot in vivo PK, dried blood spots, LC-MS/MS
Conditions: mouse, po, 3 mg/kg, ke, single oral dose 3 mg/kg, mouse I
quantity: k el (s⁻¹)
Hi! Could you send only the number? It should be in s⁻¹, unit omitted.

The recorded k el for COc1ccc(/N=C(\N)CC(O)c2cc3c(F)cc(F)cc3c3cc(C(F)(F)F)ccc23)cc1.Cl (stereo not shown) [Compound 22] is 3.69e-05
